The origin of these recorded values is paper PMC8989888.

For ACE2 (Homo sapiens, UniProt Q9BYF1), measured IC50 is reported for the entries below.

So what's the measured IC50 for this one? CC(C)C[C@H](NC(=O)OCc1ccccc1Cl)C(=O)N[C@@H](C[C@@H]1CCNC1=O)C(O)S(=O)(=O)O (some centres unmarked)
> 100 µM

So what's the measured IC50 for this one? CC(C)C[C@H](NC(=O)OCc1cccc(C(F)(F)F)c1)C(=O)N[C@@H](C[C@@H]1CCNC1=O)C(O)S(=O)(=O)O (some centres unmarked)
> 100 µM

----------
For each entry below, report its CC50 value.
assay: in vitro

So what's the measured CC50 for this one? CC(C)C[C@H](NC(=O)OCc1cccc(C(F)(F)F)c1)C(=O)N[C@@H](C[C@@H]1CCNC1=O)C(O)S(=O)(=O)O (stereo partly drawn) [NK01-63]
> 100 µM

So what's the measured CC50 for this one? CC(C)C[C@H](NC(=O)OCc1cccc(Cl)c1)C(=O)N[C@@H](C[C@@H]1CCNC1=O)C(O)S(=O)(=O)O (stereo partly drawn) [EB46]
> 100 µM

So what's the measured CC50 for this one? CC(C)C[C@H](NC(=O)OCc1ccccc1Cl)C(=O)N[C@@H](C[C@@H]1CCNC1=O)C(O)S(=O)(=O)O (stereo partly drawn) [EB54]
> 100 µM
